pIC50: −log10 of the molar value.
Measured pIC50 on human ADAMTS6 (Homo sapiens (Human)) follows.
Sequence (Q9UKP5 other isoform, or with tags, fused parts or gaps): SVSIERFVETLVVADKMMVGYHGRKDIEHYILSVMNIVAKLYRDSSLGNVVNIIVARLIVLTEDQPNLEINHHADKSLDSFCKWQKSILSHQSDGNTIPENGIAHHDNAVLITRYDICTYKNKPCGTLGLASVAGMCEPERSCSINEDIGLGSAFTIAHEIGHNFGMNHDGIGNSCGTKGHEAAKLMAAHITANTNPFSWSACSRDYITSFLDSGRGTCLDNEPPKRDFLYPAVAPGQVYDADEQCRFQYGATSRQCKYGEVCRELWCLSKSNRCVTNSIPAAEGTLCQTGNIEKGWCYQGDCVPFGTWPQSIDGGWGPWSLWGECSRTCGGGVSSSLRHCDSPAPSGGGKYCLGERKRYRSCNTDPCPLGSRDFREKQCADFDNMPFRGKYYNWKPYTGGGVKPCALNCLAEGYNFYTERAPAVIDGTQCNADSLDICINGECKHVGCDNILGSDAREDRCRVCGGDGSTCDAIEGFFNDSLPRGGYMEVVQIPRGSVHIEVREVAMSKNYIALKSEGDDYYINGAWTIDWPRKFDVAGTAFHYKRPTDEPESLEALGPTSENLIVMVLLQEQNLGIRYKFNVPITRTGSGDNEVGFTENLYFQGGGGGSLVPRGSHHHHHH

>>> df
                                   compound  recorded_value
0  COc1cc(F)cc(N2CCN(C(=O)[C@@H](C)C[C@@]3(C)NC(=O)NC3=O)CC2)c1 [Cpd 27]   7.60 to 12.00
1  COCC1(CC(C)C(=O)N2CCN(c3cc(F)c(F)c(OC)c3)[C@@H](C)C2)NC(=O)NC1=O (mixture of isomers) [Cpd 46]   7.60 to 12.00
2  COc1cc(N2CCN(C(=O)CC[C@@]3(C4CC4)NC(=O)NC3=O)C[C@@H]2C)cc(F)c1Cl [Cpd 65]   7.60 to 12.00
3  COc1cccc(N2CCN(C(=O)CCC3(C)NC(=O)NC3=O)CC2)c1 (stereo not shown) [Cpd 1]          < 7.00
4  COc1cc(N2CCN(C(=O)CC[C@@]3(C)NC(=O)NC3=O)C[C@@H]2C)cc(OC)c1Cl [Cpd 110]   7.60 to 12.00

stdin: Please tell me: pIC50 of COc1cc(N2CCN(C(=O)CC[C@@]3(C)NC(=O)NC3=O)C[C@@H]2C)cc(C)c1Cl [Cpd 105] , system human ADAMTS6 (Homo sapiens (Human))?
stdout: 7.60 to 12.00
